Listing: zone score, S. epidermidis ATCC 12228 of selected compounds
# Tested on: S. epidermidis (ATCC 12228)
# ASSAY NAME: Zone of inhibition screen, 96 well agar array format
# Assay type: cell-based
# Design: scale not given here
# TEST PARAMETERS: zone of inhibition relative to 1 mg/ml p-chlorobiphenylvancomycin

// below: answered compounds
Q: # query: zone score, S. epidermidis ATCC 12228 | item CCC(O)C(=O)NC1C(=O)NC(CC(N)=O)C(=O)NC2C(=O)NC3C(=O)NC(C(=O)NC(C(=O)O)c4cc(O)cc(O)c4-c4cc3ccc4O)C(O)c3ccc(c(Cl)c3)Oc3cc2cc(c3OC2OC(CO)C(O)C(O)C2OC2CC(C)(NCc3ccc(-c4ccc(Cl)cc4)cc3)C(O)C(C)O2)Oc2ccc(cc2Cl)C1O (mixture of isomers) [Compound 286] | system: S. epidermidis (ATCC 12228)
A: 2

Q: Okay, and CC1OC(OC2C(Oc3c4cc5cc3Oc3ccc(cc3Cl)C(O)C3NC(=O)C(NC(=O)C5NC(=O)C(CC(N)=O)NC(=O)C(NC(=O)c5ccc[n+]([O-])c5)C(O)c5ccc(c(Cl)c5)O4)c4ccc(O)c(c4)-c4c(O)cc(O)cc4C(C(=O)O)NC3=O)OC(CO)C(O)C2O)CC(C)(NCc2ccc(-c3ccc(Cl)cc3)cc2)C1O (stereo not drawn) [Compound 308] ?
A: 2

Then this compound:
Q: Field: zone score, S. epidermidis ATCC 12228 (S. epidermidis (ATCC 12228)). Entry: CC1OC(OC2C(Oc3c4cc5cc3Oc3ccc(cc3Cl)C(O)C3NC(=O)C(NC(=O)C5NC(=O)C(CC(N)=O)NC(=O)C(NC(=O)c5cccc(O)c5)C(O)c5ccc(c(Cl)c5)O4)c4ccc(O)c(c4)-c4c(O)cc(O)cc4C(C(=O)O)NC3=O)OC(CO)C(O)C2O)CC(C)(NCc2ccc(-c3ccc(Cl)cc3)cc2)C1O (stereo not drawn) [Compound 261]
A: 2

---

# Tested on: E. faecalis (CL 4877)
# ASSAY NAME: Zone of inhibition screen, 96 well agar array format
# Type: cell-based
# Set-up: scale not given here
# TEST PARAMETERS: zone of inhibition relative to 1 mg/ml stock solution of p-chlorobiphenylvancomycin
MEASURED ENDPOINT: zone score, E. faecalis CL 4877
Reply: number alone, nothing else.

# example entries with known answers
Q: GET /values?readout=zone score, E. faecalis CL 4877&system=E. faecalis (CL 4877)&item= CC1OC(OC2C(Oc3c4cc5cc3Oc3ccc(cc3Cl)C(O)C3NC(=O)C(NC(=O)C5NC(=O)C(CC(N)=O)NC(=O)C(NC(=O)CCCN)C(O)c5ccc(c(Cl)c5)O4)c4ccc(O)c(c4)-c4c(O)cc(O)cc4C(C(=O)O)NC3=O)OC(CO)C(O)C2O)CC(C)(NCc2ccc(-c3ccc(Cl)cc3)cc2)C1O (centres unmarked) [Compound 65]
A: 2

Q: Consider next the compound CC1OC(OC2C(Oc3c4cc5cc3Oc3ccc(cc3Cl)C(O)C(NC(=O)C3(O)CC(O)C(O)C(O)C3)C(=O)NC(CC(N)=O)C(=O)NC5C(=O)NC3C(=O)NC(C(=O)NC(C(=O)O)c5cc(O)cc(O)c5-c5cc3ccc5O)C(O)c3ccc(c(Cl)c3)O4)OC(CO)C(O)C2O)CC(C)(NCc2ccc(-c3ccc(Cl)cc3)cc2)C1O (centres unmarked) [Compound 146] in the same way.
A: 2

Q: Now the same for CC1OC(OC2C(Oc3c4cc5cc3Oc3ccc(cc3Cl)C(O)C3NC(=O)C(NC(=O)C5NC(=O)C(CC(N)=O)NC(=O)C(NC(=O)CC(NC(=O)OC(C)(C)C)C(N)=O)C(O)c5ccc(c(Cl)c5)O4)c4ccc(O)c(c4)-c4c(O)cc(O)cc4C(C(=O)O)NC3=O)OC(CO)C(O)C2O)CC(C)(NCc2ccc(-c3ccc(Cl)cc3)cc2)C1O (centres unmarked) [Compound 134]
A: 2

Q: Could you do the same for CC1OC(OC2C(Oc3c4cc5cc3Oc3ccc(cc3Cl)C(O)C3NC(=O)C(NC(=O)C5NC(=O)C(CC(N)=O)NC(=O)C(NC(=O)CNC(=O)c5cccnc5)C(O)c5ccc(c(Cl)c5)O4)c4ccc(O)c(c4)-c4c(O)cc(O)cc4C(C(=O)O)NC3=O)OC(CO)C(O)C2O)CC(C)(NCc2ccc(-c3ccc(Cl)cc3)cc2)C1O (centres unmarked) [Compound 197] , please?
A: 2

Now consider a different compound.
Q: API: value(readout=zone score, E. faecalis CL 4877, system=E. faecalis (CL 4877)) for record CC1OC(OC2C(Oc3c4cc5cc3Oc3ccc(cc3Cl)C(O)C3NC(=O)C(NC(=O)C5NC(=O)C(CC(N)=O)NC(=O)C(NC(=O)CN(CCO)CCO)C(O)c5ccc(c(Cl)c5)O4)c4ccc(O)c(c4)-c4c(O)cc(O)cc4C(C(=O)O)NC3=O)OC(CO)C(O)C2O)CC(C)(NCc2ccc(-c3ccc(Cl)cc3)cc2)C1O (centres unmarked) [Compound 130]
A: 2

---

In this section we review reported zone score, S. epidermidis ATCC 12228 values for a set of molecules.
# Test system: S. epidermidis (ATCC 12228)
# ASSAY NAME: Zone of inhibition screen, 96 well agar array format
# Format: cell-based
# Parameters: scale not given here
# TEST PARAMETERS: zone of inhibition relative to 1 mg/ml p-chlorobiphenylvancomycin
Give the figure by itself; no unit, no explanation.

Reference set (2 entries):
Q: Could you tell me which zone score, S. epidermidis ATCC 12228 is on file for CC1OC(OC2C(Oc3c4cc5cc3Oc3ccc(cc3Cl)C(O)C3NC(=O)C(NC(=O)C5NC(=O)C(CC(N)=O)NC(=O)C(NC(=O)C=Cc5c[nH]cn5)C(O)c5ccc(c(Cl)c5)O4)c4ccc(O)c(c4)-c4c(O)cc(O)cc4C(C(=O)O)NC3=O)OC(CO)C(O)C2O)CC(C)(NCc2ccc(-c3ccc(Cl)cc3)cc2)C1O (stereo not drawn) [Compound 321] ?
A: 2

Q: Try CCOC(=O)C=CC(=O)NC1C(=O)NC(CC(N)=O)C(=O)NC2C(=O)NC3C(=O)NC(C(=O)NC(C(=O)O)c4cc(O)cc(O)c4-c4cc3ccc4O)C(O)c3ccc(c(Cl)c3)Oc3cc2cc(c3OC2OC(CO)C(O)C(O)C2OC2CC(C)(NCc3ccc(-c4ccc(Cl)cc4)cc3)C(O)C(C)O2)Oc2ccc(cc2Cl)C1O (stereo not drawn) [Compound 296] next.
A: 2

# context switch: different molecule, same zone score, S. epidermidis ATCC 12228
Q: Item under review: CC(O)C(=O)NC1C(=O)NC(CC(N)=O)C(=O)NC2C(=O)NC3C(=O)NC(C(=O)NC(C(=O)O)c4cc(O)cc(O)c4-c4cc3ccc4O)C(O)c3ccc(c(Cl)c3)Oc3cc2cc(c3OC2OC(CO)C(O)C(O)C2OC2CC(C)(NCc3ccc(-c4ccc(Cl)cc4)cc3)C(O)C(C)O2)Oc2ccc(cc2Cl)C1O (stereo not drawn) [Compound 294] . Reported zone score, S. epidermidis ATCC 12228?
A: 2

---

The following compounds are shown together with reported zone score, E. faecalis CL 4877 values.
# Test system: E. faecalis (CL 4877)
# ASSAY NAME: Zone of inhibition screen, 96 well agar array format
# Assay type: cell-based
# Design: scale not given here
# TEST PARAMETERS: zone of inhibition relative to 1 mg/ml stock solution of p-chlorobiphenylvancomycin
Answer as a number with no unit attached.

Worked cases, zone score, E. faecalis CL 4877 given:
Q: Suppose we examine the compound `C[C@H]1O[C@H](O[C@H]2[C@H](Oc3c4cc5cc3Oc3ccc(cc3Cl)[C@@H](O)[C@@H](NC(=O)[C@H](N)Cc3c[nH]c6ccccc36)C(=O)N[C@@H](CC(N)=O)C(=O)N[C@H]5C(=O)N[C@H]3C(=O)N[C@H](C(=O)N[C@@H](C(=O)O)c5cc(O)cc(O)c5-c5cc3ccc5O)[C@H](O)c3ccc(c(Cl)c3)O4)O[C@H](CO)[C@@H](O)[C@@H]2O)C[C@@](C)(NCc2ccc(-c3ccc(Cl)cc3)cc2)[C@H]1O` ; what zone score, E. faecalis CL 4877 value has been reported?
A: 2

Q: Try this compound too: CC1OC(OC2C(Oc3c4cc5cc3Oc3ccc(cc3Cl)[C@@H](O)[C@@H](NC(=O)/C=C\C(N)=O)C(=O)N[C@@H](CC(N)=O)C(=O)N[C@H]5C(=O)NC3C(=O)N[C@H](C(=O)N[C@@H](C(=O)O)c5cc(O)cc(O)c5-c5cc3ccc5O)[C@H](O)c3ccc(c(Cl)c3)O4)OC(CO)C(O)C2O)CC(C)(NCc2ccc(-c3ccc(Cl)cc3)cc2)C1O (stereo partly drawn)
A: 2

New cases:
Q: // zone score, E. faecalis CL 4877 lookup, key: CC1OC(OC2C(Oc3c4cc5cc3Oc3ccc(cc3Cl)C(O)C3NC(=O)C(NC(=O)C5NC(=O)C(CC(N)=O)NC(=O)C(NC(=O)CC(N)C(N)=O)C(O)c5ccc(c(Cl)c5)O4)c4ccc(O)c(c4)-c4c(O)cc(O)cc4C(C(=O)O)NC3=O)OC(CO)C(O)C2O)CC(C)(NCc2ccc(-c3ccc(Cl)cc3)cc2)C1O (stereo not drawn)
A: 2
